Field: selectivity ratio. Provide a value for each of the compounds that follow.
assay summary: Selectivity index, ratio of TD50 for human THP1 cells to MIC for Mycobacterium massiliense isolate CRM0019
Assay type: toxicity
run conditions: THP-1 cells, read-out: Selectivity Index

*Q* Can you share its selectivity ratio? I mean this compound: Cc1cc(C)c2cc(C(=O)NC3CCCCCCC3)[nH]c2c1
*A* > 1910

*Q* And then C[C@@H]1[C@H]2C[C@@H](C[C@H]1NC(=O)c1cc3ccccc3[nH]1)C2(C)C , what is it?
*A* 188

*Q* And then Cc1cc(C)c2cc(C(=O)N[C@@H]3C[C@@H]4C[C@H]([C@H]3C)C4(C)C)[nH]c2c1 , what is it?
*A* > 130

*Q* And then O=C(NC12CC3CC(CC(C3)C1)C2)c1cc2ccccc2[nH]1 , what is it?
*A* > 58

---

Field: MIC. Provide a value for each of the molecules that follow.
Test system: Mycobacterium avium-intracellulare
assay summary: Antimycobacterial activity against Mycobacterium avium-intracellulare isolate 1956 after 8 days by resazurin microtiter based colorimetric assay
Type: functional
run conditions: isolate 1956, 192 h

*Q* Can you share its MIC? I mean this molecule: Cc1cc(C)c2cc(C(=O)NC3CCCCCCC3)[nH]c2c1
*A* 1 µg/mL

*Q* And then Cc1cc(C)c2cc(C(=O)NCC34CC5CC(CC(C5)C3)C4)[nH]c2c1 , what is it?
*A* > 32 µg/mL

*Q* And then CCC12CC3CC(C1)CC(NC(=O)c1cc4ccccc4[nH]1)(C3)C2 , what is it?
*A* > 32 µg/mL

*Q* And then Cc1cc(C)c2cc(C(=O)NC3C4CC5CC(C4)CC3C5)[nH]c2c1 (configuration not stated) , what is it?
*A* > 32 µg/mL

*Q* And then O=C(NC1CCCCCCC1)c1cc2ccccc2[nH]1 , what is it?
*A* > 32 µg/mL

*Q* And then CC1CCC(NC(=O)c2cc3ccccc3[nH]2)CC1 (mixture of isomers) , what is it?
*A* > 32 µg/mL

*Q* And then CC(NC(=O)c1cc2ccccc2[nH]1)C12CC3CC(CC(C3)C1)C2 (configuration not stated) , what is it?
*A* 32 µg/mL

*Q* And then O=C(NCC12CC3CC(CC(C3)C1)C2)c1cc2ccccc2[nH]1 , what is it?
*A* > 32 µg/mL

*Q* And then Cc1cc(C)c2cc(C(=O)NC3CCCC3)[nH]c2c1 , what is it?
*A* > 32 µg/mL

*Q* And then Cc1cc(C)c2cc(C(=O)NC34CC5CC(CC(C5)C3)C4)[nH]c2c1 , what is it?
*A* > 32 µg/mL

*Q* And then CCCCCCCNC(=O)c1cc2c(C)cc(C)cc2[nH]1 , what is it?
*A* > 32 µg/mL

*Q* And then Cc1cc(C)c2cc(C(=O)NC(C)C34CC5CC(CC(C5)C3)C4)[nH]c2c1 (configuration not stated) , what is it?
*A* > 32 µg/mL

---

Field: MIC. Provide a value for each of the compounds that follow.
Test system: Mycobacteroides abscessus
assay summary: Antimycobacterial activity against Mycobacterium abscessus ATCC 19977 after 8 days by resazurin microtiter based colorimetric assay
Type: functional
run conditions: ATCC 19977, 192 h

*Q* Can you share its MIC? I mean this compound: O=C(NC12CC3CC(CC(C3)C1)C2)c1cc2ccccc2[nH]1
*A* 0.25 µg/mL

*Q* And then Cc1cc(C)c2cc(C(=O)N[C@@H]3C[C@@H]4C[C@H]([C@H]3C)C4(C)C)[nH]c2c1 , what is it?
*A* 0.125 µg/mL

*Q* And then O=C(NC1CCCCC1)c1cc2ccccc2[nH]1 , what is it?
*A* > 32 µg/mL

*Q* And then CCCCCCCNC(=O)c1cc2c(C)cc(C)cc2[nH]1 , what is it?
*A* > 32 µg/mL

*Q* And then O=C(NC1CCCCCC1)c1cc2ccccc2[nH]1 , what is it?
*A* > 32 µg/mL

*Q* And then C[C@H]1CC[C@H](NC(=O)c2cc3ccccc3[nH]2)CC1 , what is it?
*A* > 32 µg/mL

*Q* And then Cc1cc(C)c2cc(C(=O)NCc3cccc(Cl)c3)[nH]c2c1 , what is it?
*A* > 32 µg/mL

*Q* And then Cc1cc(C)c2cc(C(=O)NC3CCCCCC3)[nH]c2c1 , what is it?
*A* ≤ 0.06 µg/mL

*Q* And then C[C@@H]1[C@H]2C[C@@H](C[C@H]1NC(=O)c1cc3ccccc3[nH]1)C2(C)C , what is it?
*A* 0.12 µg/mL

*Q* And then Cc1cc(C)c2cc(C(=O)NC34CC5CC(CC(C5)C3)C4)[nH]c2c1 , what is it?
*A* > 32 µg/mL

*Q* And then CC(NC(=O)c1cc2ccccc2[nH]1)C12CC3CC(CC(C3)C1)C2 (stereo not given) , what is it?
*A* 16 µg/mL

*Q* And then O=C(NCc1cccc(Cl)c1)c1cc2ccccc2[nH]1 , what is it?
*A* > 32 µg/mL

*Q* And then O=C(NC1CCCCCCC1)c1cc2ccccc2[nH]1 , what is it?
*A* > 32 µg/mL

*Q* And then Cc1cc(C)c2cc(C(=O)N[C@H]3CC[C@H](C)CC3)[nH]c2c1 , what is it?
*A* ≤ 0.06 µg/mL

*Q* And then Cc1cc(C)c2cc(C(=O)NC3C4CC5CC(C4)CC3C5)[nH]c2c1 (stereo not given) , what is it?
*A* > 32 µg/mL

*Q* And then Cc1cc(C)c2cc(C(=O)NC3CCCCC3)[nH]c2c1 , what is it?
*A* 0.5 µg/mL

*Q* And then CCCCCCCNC(=O)c1cc2ccccc2[nH]1 , what is it?
*A* > 32 µg/mL

*Q* And then O=C(NC1C2CC3CC(C2)CC1C3)c1cc2ccccc2[nH]1 (stereo not given) , what is it?
*A* > 32 µg/mL

*Q* And then O=C(NCC12CC3CC(CC(C3)C1)C2)c1cc2ccccc2[nH]1 , what is it?
*A* 2 µg/mL

*Q* And then CCCCCCCCNC(=O)c1cc2ccccc2[nH]1 , what is it?
*A* > 32 µg/mL

*Q* And then O=C(NC1CCCC1)c1cc2ccccc2[nH]1 , what is it?
*A* > 32 µg/mL

*Q* And then CCC12CC3CC(C1)CC(NC(=O)c1cc4c(C)cc(C)cc4[nH]1)(C3)C2 , what is it?
*A* > 32 µg/mL

*Q* And then Cc1cc(C)c2cc(C(=O)NC3CCCCCCC3)[nH]c2c1 , what is it?
*A* 0.063 µg/mL

*Q* And then Cc1cc(C)c2cc(C(=O)NC3CCCC3)[nH]c2c1 , what is it?
*A* 4 µg/mL

*Q* And then Cc1cc(C)c2cc(C(=O)NCC34CC5CC(CC(C5)C3)C4)[nH]c2c1 , what is it?
*A* > 32 µg/mL

---

Tested on: Mycobacterium avium-intracellulare
assay summary: Antimycobacterial activity against Mycobacterium avium-intracellulare isolate 1956 after 8 days by resazurin microtiter based colorimetric assay
Assay type: functional
run conditions: isolate 1956, 192 h
Field: MIC. Provide a value for each of the molecules that follow.

*Q* Can you share its MIC? I mean this molecule: CCC12CC3CC(C1)CC(NC(=O)c1cc4c(C)cc(C)cc4[nH]1)(C3)C2
*A* > 32 µg/mL

*Q* And then CCCCCCCCNC(=O)c1cc2c(C)cc(C)cc2[nH]1 , what is it?
*A* > 32 µg/mL

*Q* And then Cc1cc(C)c2cc(C(=O)N[C@H]3CC[C@H](C)CC3)[nH]c2c1 , what is it?
*A* > 32 µg/mL

*Q* And then O=C(NC1C2CC3CC(C2)CC1C3)c1cc2ccccc2[nH]1 (stereo not given) , what is it?
*A* > 32 µg/mL

*Q* And then O=C(NC12CC3CC(CC(C3)C1)C2)c1cc2ccccc2[nH]1 , what is it?
*A* 8 µg/mL

*Q* And then Cc1cc(C)c2cc(C(=O)NC3CCCCCC3)[nH]c2c1 , what is it?
*A* 4 µg/mL

*Q* And then Cc1cc(C)c2cc(C(=O)NC3CCCCC3)[nH]c2c1 , what is it?
*A* > 32 µg/mL

*Q* And then Cc1cc(C)c2cc(C(=O)NC3CCC(C)CC3)[nH]c2c1 (mixture of isomers) , what is it?
*A* > 32 µg/mL

*Q* And then C[C@@H]1[C@H]2C[C@@H](C[C@H]1NC(=O)c1cc3ccccc3[nH]1)C2(C)C , what is it?
*A* 8 µg/mL

*Q* And then Cc1cc(C)c2cc(C(=O)N[C@@H]3C[C@@H]4C[C@H]([C@H]3C)C4(C)C)[nH]c2c1 , what is it?
*A* 2 µg/mL
